- Study system: CDK9/Cyclin T (Homo sapiens)
- Sequence (P50750 whole entry): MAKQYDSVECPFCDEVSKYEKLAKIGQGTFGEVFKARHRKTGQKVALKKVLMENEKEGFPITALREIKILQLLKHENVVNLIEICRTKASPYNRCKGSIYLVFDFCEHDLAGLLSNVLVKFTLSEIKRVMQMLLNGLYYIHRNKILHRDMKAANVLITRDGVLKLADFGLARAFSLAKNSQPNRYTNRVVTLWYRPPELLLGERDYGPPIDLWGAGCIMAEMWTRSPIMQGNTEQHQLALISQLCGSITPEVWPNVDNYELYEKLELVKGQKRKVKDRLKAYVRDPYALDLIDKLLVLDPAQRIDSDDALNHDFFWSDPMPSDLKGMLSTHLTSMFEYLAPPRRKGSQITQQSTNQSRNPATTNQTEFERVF
- Sequence (O60563 whole entry partner): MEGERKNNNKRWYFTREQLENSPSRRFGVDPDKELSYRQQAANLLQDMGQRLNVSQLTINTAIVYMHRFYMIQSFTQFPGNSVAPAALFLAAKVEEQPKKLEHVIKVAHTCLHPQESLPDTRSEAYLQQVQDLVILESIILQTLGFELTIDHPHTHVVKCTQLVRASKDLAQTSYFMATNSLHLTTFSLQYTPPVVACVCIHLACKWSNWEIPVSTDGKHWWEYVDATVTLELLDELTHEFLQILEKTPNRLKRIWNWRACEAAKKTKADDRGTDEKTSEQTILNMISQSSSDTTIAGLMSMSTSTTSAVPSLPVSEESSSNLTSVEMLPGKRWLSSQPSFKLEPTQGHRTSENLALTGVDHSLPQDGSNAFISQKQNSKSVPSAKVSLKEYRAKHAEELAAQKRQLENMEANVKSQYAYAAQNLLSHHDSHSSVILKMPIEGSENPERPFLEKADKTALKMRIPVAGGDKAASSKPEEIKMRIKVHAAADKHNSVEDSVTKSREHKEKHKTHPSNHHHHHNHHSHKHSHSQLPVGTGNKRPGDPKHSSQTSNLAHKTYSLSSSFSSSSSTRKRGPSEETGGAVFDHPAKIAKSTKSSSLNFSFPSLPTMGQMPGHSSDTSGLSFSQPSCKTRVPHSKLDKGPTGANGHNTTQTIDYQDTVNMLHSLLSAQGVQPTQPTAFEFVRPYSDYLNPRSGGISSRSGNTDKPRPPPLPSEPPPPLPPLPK
- Assay protocol: CDK9/Cyclin T kinase assay
Result type: IC50 (µM)
Please respond with the number in µM and leave the unit unwritten.

According to the records, this molecule `CN1CCN(c2ccc(Nc3ncc4cc5n(c4n3)C3(CCOCC3)CN=C5)nc2)CC1` displays IC50 of 2

Value of measured IC50 for the entry `CN1CCN(c2ccc(Nc3ncc4cc5n(c4n3)C3(CCCCC3)CN=C5NCc3ccccc3)nc2)CC1` : 11.2

IC50 measured on `CO[C@H]1CC[C@]2(CC1)CN=Cc1cc3cnc(Nc4ccc(N5CCN(C)CC5)cn4)nc3n12` = 1

The recorded IC50 for `CCCNC1=NCC2(CCCCC2)n2c1cc1cnc(Nc3ccc(N4CCN(C)CC4)cn3)nc12` is 32.5

IC50 for `CN1CCN(c2ccc(Nc3ncc4cc5n(c4n3)C3(CCCCC3)CNC5)nc2)CC1` is 4.47
